# EXPERIMENTAL_TARGET: DmBCA (Drosophila melanogaster, UniProt Q9VHJ5)
# Construct: C-terminal thrombin site and His6; baculovirus/Sf9, purified from culture supernatant; thrombin treatment to remove tag; 28/27 kDa before/after thrombin; dimer
# Sequence (Q9VHJ5 1-255): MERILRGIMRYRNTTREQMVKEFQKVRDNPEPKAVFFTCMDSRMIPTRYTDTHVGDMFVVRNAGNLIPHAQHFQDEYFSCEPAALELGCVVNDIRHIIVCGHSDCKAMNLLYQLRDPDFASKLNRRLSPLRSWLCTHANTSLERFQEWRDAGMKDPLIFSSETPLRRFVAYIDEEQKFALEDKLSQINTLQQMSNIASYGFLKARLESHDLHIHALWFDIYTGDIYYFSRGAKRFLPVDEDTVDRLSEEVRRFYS
# METHOD: stopped-flow CO2 hydration assay
Give measured Ki for each item. Keep answers brief.
Answers are plain numbers, in µM.

Worked examples follow.
O=S(=O)(O)O ... 1360
Br ... 1040
F ... 800
N#CO ... 730
I ... 1180
O=NO ... 28600
N#CS ... 1280
O=S(O)O ... 1290
OB(O)c1ccccc1 ... 22400
O=C(O)O ... 26900

List reported Ki for each of these compounds:
1. NS(=O)(=O)O
2. O=[N+]([O-])O
3. NS(N)(=O)=O

Given back:
2450
43700
150

List reported Ki for each of these compounds:
1. Cl
2. S

Given back:
970
1010
